B1: FAM50A (parent)
chain: KALEILRKDFSELRSAGVEQLMYI

- Variants of: B1
- ASSAY_EXPLANATION: protein stability index of a GFP-peptide fusion (GPS, HEK-293T) (PSI 1-6); higher = more stable;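 note: lentivirally expressed fusions sorted by FACS into six bins by GFP to DsRed ratio, PSI derived from sequencing read proportions per bin multiplied by bin number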
- MEASUREMENT_SETUP: c terminus: a fixed tail appended
Classes are defined on protein stability index with ranges bottom: < 2; middle: ≥ 2 and < 3; top: ≥ 3

Example entries and their recorded answers appear below.
R14F : top
A2D : top
E4V : middle

As a next step, examine the variant that follows.
Please indicate the class for D9V based on its protein stability index.
middle
